Hi there, I'd appreciate the recorded pest or weed control at 1200 g/ha for every entry that follows.
System: Lindernia pyxidaria
Assay: Test Example 1: herbicidal effect test by soil application in paddy rice
Type: in vivo
Conditions: 336 h, 120 g active ingredient per 10 ares, applied immediately after sowing, flooded pots, 14 days after application, read-out: weed inhibition rate
Protocol: Wagner pots with an area of […] were filled with paddy soil, followed by addition of water and incorporation of chemical fertilizer (N:P:K = 16:16:16), after which puddling was performed. […] The present test was conducted in duplicate for each chemical concentration group, and the weed inhibition rate (%) was determined 14 days after chemical application using the following formula (Math. 1). […]

Answered cases to consult:
>  <COMPOUND>
Cc1cccc(C)c1CO[C@@H]1C[C@]2(C(C)C)O[C@@]1(C)CC2=O

>  <pest or weed control at 1200 g/ha>
≥ 80%

$$$$
>  <COMPOUND>
CC(C)[C@]12C[C@@H](OCc3ccccc3F)[C@](C)(C[C@@H]1OCc1ccccc1F)O2

>  <pest or weed control at 1200 g/ha>
≥ 80%

$$$$
>  <COMPOUND>
C#CCO[C@@H]1C[C@]2(C)O[C@@]1(C(C)C)C[C@H]2OCc1ccccc1F

>  <pest or weed control at 1200 g/ha>
≥ 80%

$$$$
>  <COMPOUND>
CC(C)[C@]12C[C@@H](OCc3ccccc3F)[C@](C)(CC1c1ccc(F)cc1)O2 (some centres unmarked)

>  <pest or weed control at 1200 g/ha>
≥ 80%

$$$$
>  <COMPOUND>
CC(C)[C@]12C[C@@H](OCc3ccccc3F)[C@](C)(C[C@@H]1Br)O2

>  <pest or weed control at 1200 g/ha>
≥ 80%

$$$$

Quick one: give me pest or weed control at 1200 g/ha for each item below, same order please.
1. CC(C)[C@]12C[C@@H](OCc3cccc(F)c3)[C@](C)(CC1=O)O2
2. CC(C)[C@]12C[C@@H](OCc3ccccc3F)[C@](C)(CC1OCC1CC1)O2 (mixture of isomers)
3. CC(C)[C@]12C[C@@H](OCc3ccccc3F)[C@](C)(CC1c1ccccc1F)O2 (some centres unmarked)

result:
≥ 80%
≥ 80%
≥ 80%

###

test system: Digitaria ciliaris; assay: Test Example 7: herbicidal effect test by soil application in upland field (low dose); type: in vivo; details: Digitaria ciliaris, 7.5 g per 10 ares, sprayed one day after sowing, 14 days after application, read-out: weed inhibition rate
Please go through the items and note down their inhibition at 75 g/ha.

// worked examples, inhibition at 75 g/ha included
>  <MOLECULE>
CC(C)[C@]12C[C@@H](OCc3c(F)cccc3F)[C@](C)(C[C@@H]1O)O2 [1-41]

>  <OBSERVATION_TYPE>
inhibition at 75 g/ha

>  <DATA_VALUE>
≥ 80%

$$$$
>  <MOLECULE>
CC(C)C12CC(OCc3cccs3)C(C)(CC1Br)O2 (stereo not drawn) [1-1389]

>  <OBSERVATION_TYPE>
inhibition at 75 g/ha

>  <DATA_VALUE>
≥ 80%

$$$$
>  <MOLECULE>
Cc1ccccc1CO[C@@H]1C[C@]2(C(C)C)O[C@@]1(C)C/C2=N\O [2-191]

>  <OBSERVATION_TYPE>
inhibition at 75 g/ha

>  <DATA_VALUE>
≥ 80%

$$$$
>  <MOLECULE>
CC(C)C12C=CC(C)(O1)C(OCc1ccsc1)C2 (stereo not drawn) [3-757]

>  <OBSERVATION_TYPE>
inhibition at 75 g/ha

>  <DATA_VALUE>
≥ 80%

$$$$
>  <MOLECULE>
CC(C)[C@]12C[C@@H](OCc3ccccc3Cl)[C@](C)(C[C@@H]1Cl)O2 [1-13]

>  <OBSERVATION_TYPE>
inhibition at 75 g/ha

>  <DATA_VALUE>
≥ 80%

$$$$
>  <MOLECULE>
CC(C)C12CC(OCc3ccccc3C#N)C(C)(CC1Cl)O2 (stereo not drawn) [1-1304]

>  <OBSERVATION_TYPE>
inhibition at 75 g/ha

>  <DATA_VALUE>
≥ 80%

$$$$
>  <MOLECULE>
CC(C)[C@]12C=C[C@](C)(O1)[C@H](OCc1ccccc1)C2 [3-1]

>  <OBSERVATION_TYPE>
inhibition at 75 g/ha

>  <DATA_VALUE>
≥ 80%

$$$$
>  <MOLECULE>
CC(C)C12CC(OCc3c(F)cccc3Br)C(C)(CC1Cl)O2 (stereo not drawn) [1-1611]

>  <OBSERVATION_TYPE>
inhibition at 75 g/ha

>  <DATA_VALUE>
≥ 80%

$$$$

Next item in the queue.
query: Respond only with inhibition at 75 g/ha recorded for CC#CCOC1C[C@]2(C(C)C)O[C@@]1(C)C[C@@H]2OC (mixture of isomers) [1-801]
result: ≥ 80%
